experiment: chemical genetic growth profiling, strain panel (AID 1159580);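 note: tested at 20 µM; growth read once vehicle control cultures reached saturation at 30 °C; 1 = growth at the plate median or of vehicle wells; lower values mean less growth of the strain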
condition: S. cerevisiae deletion strains, growth OD, locus YML120C, strain ndi1, stronger effect = lower value
The whole screen tested about 5,500 compounds, of which about 2,000 (36%) were called active. Another 18% or so got no clear call; they are omitted. The list shows a part of the results.

molecule	normalized growth
COC1CC(O[C@H]2CC[C@]3(C=O)C4CC[C@]5(C)C(C6=CC(=O)OC6)CC[C@]5(O)C4CC[C@]3(O)C2)OC(C)C1O (some centres undefined)	0.947
CC(=O)OCC(=O)[C@@]1(O)CCC2C3C[C@H](C)C4=CC(=O)C=CC4(C)C3[C@@H](O)CC21C (some centres undefined)	1.02
COc1ccc(-c2cc(=O)c3c(O)c(OC)c(O[C@H]4O[C@H](CO[C@@H]5O[C@@H](C)[C@H](O)[C@@H](O)[C@H]5O)[C@@H](O)[C@H](O)[C@H]4O)cc3o2)cc1	1.01
COC1=CC(C)[C@@H]2C[C@H]3OC(=O)C[C@H]4C(C)=C(OC)C(=O)C([C@@]34C)[C@@]2(C)C1=O (some centres undefined)	0.99

---

experiment: chemical genetic growth profiling, strain panel (AID 1159580);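 note: tested at 20 µM; growth read once vehicle control cultures reached saturation at 30 °C; 1 = growth at the plate median or of vehicle wells; lower values mean less growth of the strain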
condition: S. cerevisiae deletion strains, growth OD, locus YML120C, strain ndi1, stronger effect = lower value
Hit rate of the full screen: of about 5,500 compounds, about 2,000 (36%) were called active. Inconclusive results (about 18%) are left out. The list shows a part of the results.
Recorded normalized growth for the following compounds
parameter: normalized growth

compound	result_value
O=S(=O)(O)O	0.979
NC[C@@H]1O[C@H](O[C@@H]2[C@@H](CO)OC(O[C@@H]3[C@@H](O)[C@H](N)C[C@H](N)[C@H]3O[C@H]3O[C@H](CO)[C@@H](O)[C@H](O)[C@H]3N)[C@@H]2O)[C@H](N)[C@@H](O)[C@@H]1O (stereo not given in full)	0.988
CCc1ccc2c(O)c3c(cc2c1C(=O)OC)C(=O)c1c(O)ccc(O)c1C3=O	0.999
CC1(C)S[C@@H]2C(N3C(=O)[C@@H](c4ccccc4)NC3(C)C)C(=O)N2[C@H]1C(=O)O (stereo not given in full)	1.05
COC1=CC(=O)C=C(OC)C1=O	1.01

---

Some compounds, each annotated with its measured normalized growth.
experiment: chemical genetic growth profiling, strain panel (AID 1159580);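 note: tested at 20 µM; growth read once vehicle control cultures reached saturation at 30 °C; 1 = growth at the plate median or of vehicle wells; lower values mean less growth of the strain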
condition: S. cerevisiae deletion strains, growth OD, locus YBR229C, strain ROT2, stronger effect = lower value
The whole screen tested about 5,500 compounds, of which about 2,000 (36%) were called active. Another 18% or so got no clear call; they are omitted. The list shows a part of the results.
parameter: normalized growth

In [3]: df
Out[3]:
                                    compound  result_value
 0        CCOC(=O)C1=C(O)C(=O)N(Cc2ccccc2)C1             1
 1                 CCOC(=O)c1cnc2n(c1=O)CCS2         0.997
 2         O=[N+]([O-])c1cccnc1Oc1ccc(Cl)cc1         0.939
 3  O=C(O)C1CC(=O)N(Cc2ccccc2Cl)C1 (stereo unspecified)             1
 4  C[C@@H]1CC[C@@]23CCC4(C)[C@@](C=CC5[C@@]6(C)CCC(=O)C(C)(C)C6CC[C@]54C)(OC2=O)C3[C@H]1C (stereo partly specified)          1.02
 5  CC1(C)S[C@@H]2[C@H](NC(=O)C(C(=O)O)c3ccccc3)C(=O)N2[C@H]1C(=O)O (stereo partly specified)         0.987
 6  CCOC(=O)C1C(=O)C=C(c2cccs2)CC1c1ccc(OC)c(OC)c1Cl (stereo unspecified)         0.991
 7  COC1=CC(C)[C@@H]2C[C@H]3OC(=O)C[C@H]4C(C)=C(OC)C(=O)C([C@@]34C)[C@@]2(C)C1=O (stereo partly specified)          1.01
 8                       NC(N)=Nc1ccc(Cl)cc1          1.01
 9             NC(N)=NC(N)=Nc1cc(Cl)cc(Cl)c1          1.01
10  O=C(CCCN1CCC(O)(c2ccc(Cl)cc2)CC1)c1ccc(F)cc1         0.981
